From: ChEMBL document CHEMBL1938269

Test system: HepG2
Experiment: Antiproliferative activity against human HepG2 cells after 48 hrs by MTT assay
Type: functional, cell-based
Details: HepG2, 48 h
pIC50: −log10 of the molar value.
Assign Met whenever pIC50 does not fall below 5; assign Not met whenever it does.

These solved cases illustrate the format of a correct answer.
COc1c(O)cc2oc(-c3ccccc3)cc(=O)c2c1O [OROXYLIN A]	Not met
COc1c(OCCCCN2CCCCC2)cc2oc(-c3ccccc3)cc(=O)c2c1O	Met
COc1c(OCCCCN2CCCC2)cc2oc(-c3ccccc3)cc(=O)c2c1O	Met
COc1c(OCCN2CCN(C)CC2)cc2oc(-c3ccccc3)cc(=O)c2c1O	Not met
COc1c(OCCCCN2CCOCC2)cc2oc(-c3ccccc3)cc(=O)c2c1O	Not met

Determine whether this compound has pIC50 no lower than 5: COc1c(OCCCN2CCCCC2)cc2oc(-c3ccccc3)cc(=O)c2c1O
Met

Determine whether this compound has pIC50 no lower than 5: COc1c(OCCN2CCOCC2)cc2oc(-c3ccccc3)cc(=O)c2c1O
Not met

Determine whether this compound has pIC50 no lower than 5: CCN(CC)CCCCOc1cc2oc(-c3ccccc3)cc(=O)c2c(O)c1OC
Met

Determine whether this compound has pIC50 no lower than 5: CCN(CC)CCCOc1cc2oc(-c3ccccc3)cc(=O)c2c(O)c1OC
Not met

Determine whether this compound has pIC50 no lower than 5: COc1c(OCCCCN2CCN(C)CC2)cc2oc(-c3ccccc3)cc(=O)c2c1O
Not met

Determine whether this compound has pIC50 no lower than 5: COc1c(OCCCN2CCOCC2)cc2oc(-c3ccccc3)cc(=O)c2c1O
Not met

Determine whether this compound has pIC50 no lower than 5: COc1c(OCCCN2CCCC2)cc2oc(-c3ccccc3)cc(=O)c2c1O
Not met

Determine whether this compound has pIC50 no lower than 5: COc1c(OCCN2CCCCC2)cc2oc(-c3ccccc3)cc(=O)c2c1O
Not met

Determine whether this compound has pIC50 no lower than 5: COc1c(OCCCN2CCN(C)CC2)cc2oc(-c3ccccc3)cc(=O)c2c1O
Not met

====

Assay: Antiproliferative activity against human BCG823 cells after 48 hrs by MTT assay
Assay type: functional, cell-based
Settings: BCG823, 48 h
Hi! Just check whether IC50 is below 10 µM. Below gives MET, equal or above gives NOT MET.

Would you kindly verify if IC50 of COc1c(OCCCCN2CCOCC2)cc2oc(-c3ccccc3)cc(=O)c2c1O is strictly less than 10 µM?
NOT MET

Would you kindly verify if IC50 of COc1c(OCCN2CCN(C)CC2)cc2oc(-c3ccccc3)cc(=O)c2c1O is strictly less than 10 µM?
NOT MET

====

Experiment: Antiproliferative activity against human BCG823 cells after 48 hrs by MTT assay
Type: functional, cell-based
Conditions: BCG823, 48 h
pIC50: −log10 of the molar value.
Assign Criterion met whenever pIC50 does not fall below 5; assign Criterion not met whenever it does.

These solved cases illustrate the format of a correct answer.
COc1c(O)cc2oc(-c3ccccc3)cc(=O)c2c1O	Criterion not met
CCN(CC)CCCOc1cc2oc(-c3ccccc3)cc(=O)c2c(O)c1OC	Criterion met
COc1c(OCCCN2CCN(C)CC2)cc2oc(-c3ccccc3)cc(=O)c2c1O	Criterion not met

Determine whether this molecule has pIC50 no lower than 5: COc1c(OCCN2CCCC2)cc2oc(-c3ccccc3)cc(=O)c2c1O
Criterion not met

Determine whether this molecule has pIC50 no lower than 5: COc1c(OCCCCN2CCCCC2)cc2oc(-c3ccccc3)cc(=O)c2c1O
Criterion met
